Test system: Sirt5
Construct: consisting of amino acids 37–310 (C-terminal); His-tag (N); purchased Reaction Biology Corporation (Malvern, PA, USA), in-house enzyme of the contract laboratory; host or cells: E. coli
ASSAY OVERVIEW: Fluorescence-based Sirt5 subtype selectivity assay (Reaction Biology)
Format: biochemical
ASSAY CONTEXT: 50 µM inhibitor, duplicate, relative to no-inhibitor control
Experimental: The determination of the inhibitory potency and corresponding subtype selectivity of the synthesized hybrid candidates was performed by Reaction Biology Cooperation (Malvern, PA, USA) using a fluorescence-based assay (Table 1). Sirtuin assays. The biological activity of the test substances against the respective sirtuin enzymes was evaluated by means of a fluorescence-based assay performed by Reaction Biology Corporation (Malvern, PA, USA). […]
ENDPOINT NAME: Residual Enzyme Activity [%] ± SD Sirt5 (%)
Just the number in %, nothing appended.

>  <ITEM SMILES>
Cc1cc(C)nc(SCC(=O)Nc2ncc(COc3ccc(NC(=O)c4cnn(C)c4)c(Cl)c3)s2)n1

>  <MEASUREMENT UNIT>
%

>  <ASSAY RESULT>
55.1

$$$$
>  <ITEM SMILES>
Cc1cc(C)nc(SCC(=O)Nc2ncc(COc3ccc(NC(=O)c4cccs4)cc3)s2)n1

>  <MEASUREMENT UNIT>
%

>  <ASSAY RESULT>
75.6

$$$$
>  <ITEM SMILES>
Cc1cc(C)nc(SCC(=O)Nc2ncc(COc3ccccc3)s2)n1

>  <MEASUREMENT UNIT>
%

>  <ASSAY RESULT>
94.6

$$$$

q: Which Residual Enzyme Activity [%] ± SD Sirt5 value is on record for `Cc1cc(C)nc(SCC(=O)Nc2ncc(COc3ccc(NC(=O)c4cnn(C)c4)cc3)s2)n1` ?
a: 79.8

---

STUDY SYSTEM: Sirt2 (Homo sapiens, UniProt Q8IXJ6)
Construct: comprising amino acids 50–389 (C-terminal); His-tag (N); purchased Reaction Biology Corporation (Malvern, PA, USA), in-house enzyme of the contract laboratory; host or cells: E. coli
Sequence (Q8IXJ6 50-389): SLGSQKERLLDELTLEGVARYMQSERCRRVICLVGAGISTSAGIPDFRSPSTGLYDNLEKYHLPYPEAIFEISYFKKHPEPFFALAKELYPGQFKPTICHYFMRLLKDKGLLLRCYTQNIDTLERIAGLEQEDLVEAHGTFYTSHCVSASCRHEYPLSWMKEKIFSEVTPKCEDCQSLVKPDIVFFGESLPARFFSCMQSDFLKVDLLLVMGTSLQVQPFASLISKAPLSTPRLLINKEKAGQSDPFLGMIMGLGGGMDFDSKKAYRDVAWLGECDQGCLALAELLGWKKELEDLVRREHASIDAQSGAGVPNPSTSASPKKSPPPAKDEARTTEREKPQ
ASSAY OVERVIEW: Fluorescence-based Sirt2 deacetylase inhibition assay (Reaction Biology)
Format: biochemical
ASSAY CONTEXT: mean ± SD of three dilution series, fluorescence-based assay; read-out: IC50 [µM] ± SD Sirt2
Here the recorded log10 IC50 is given for each entry.
Annotation: log10 of IC50, µM basis.

Example results:
>  <ITEM SMILES>
Cc1cc(C)nc(SCC(=O)Nc2ncc(COc3ccc(NC(=O)c4cnn(C)c4)cc3)s2)n1

>  <ASSAY RESULT>
-1.18

$$$$
>  <ITEM SMILES>
Cc1cc(C)nc(SCC(=O)Nc2ncc(COc3ccc(NC(=O)c4cnn(C)c4)c(Cl)c3)s2)n1

>  <ASSAY RESULT>
-1.60

$$$$
>  <ITEM SMILES>
Cc1cc(C)nc(SCC(=O)Nc2ncc(COc3cccc4ccccc34)s2)n1

>  <ASSAY RESULT>
0.81

$$$$
>  <ITEM SMILES>
Cc1cc(C)nc(SCC(=O)Nc2ncc(COc3ccccc3)s2)n1

>  <ASSAY RESULT>
0.72

$$$$
>  <ITEM SMILES>
Cc1cc(C)nc(SCC(=O)Nc2ncc(COc3ccc(NC(=O)c4cccs4)cc3)s2)n1

>  <ASSAY RESULT>
-1.03

$$$$
>  <ITEM SMILES>
Cc1cc(C)nc(SCC(=O)Nc2ncc(COc3ccc(NC(=O)c4cnn(C)c4)c(I)c3)s2)n1

>  <ASSAY RESULT>
-1.31

$$$$

Let us move to another entry and its log10 IC50.
q: Give the measured log10 IC50 of `Cc1cc(C)nc(SCC(=O)Nc2ncc(COc3ccc(NC(=O)c4cnn(C)c4)c(Br)c3)s2)n1` .
a: -1.81

---

Tested on: Sirt3
Construct: spans amino acids 101–399; GST (N); purchased Reaction Biology Corporation (Malvern, PA, USA), in-house enzyme of the contract laboratory; host or cells: E. coli
ASSAY OVERVIEW: Fluorescence-based Sirt3 subtype selectivity assay (Reaction Biology)
Type: biochemical
ASSAY CONTEXT: 50 µM inhibitor, duplicate, relative to no-inhibitor control
Description: The determination of the inhibitory potency and corresponding subtype selectivity of the synthesized hybrid candidates was performed by Reaction Biology Cooperation (Malvern, PA, USA) using a fluorescence-based assay (Table 1). Sirtuin assays. The biological activity of the test substances against the respective sirtuin enzymes was evaluated by means of a fluorescence-based assay performed by Reaction Biology Corporation (Malvern, PA, USA). […]
ENDPOINT NAME: Residual Enzyme Activity [%] ± SD Sirt3 (%)
Just the number in %, nothing appended.

For orientation, consider the following solved cases.
>  <ITEM SMILES>
Cc1cc(C)nc(SCC(=O)Nc2ncc(COc3cccc4ccccc34)s2)n1

>  <ASSAY RESULT>
85.0

$$$$
>  <ITEM SMILES>
Cc1cc(C)nc(SCC(=O)Nc2ncc(COc3ccc(NC(=O)c4cccs4)cc3)s2)n1

>  <ASSAY RESULT>
75.8

$$$$
>  <ITEM SMILES>
Cc1cc(C)nc(SCC(=O)Nc2ncc(COc3ccc(NC(=O)c4cnn(C)c4)cc3)s2)n1

>  <ASSAY RESULT>
62.5

$$$$

Now for the molecule whose Residual Enzyme Activity [%] ± SD Sirt3 we want.
q: Short answer please: Residual Enzyme Activity [%] ± SD Sirt3, Sirt3, entry `Cc1cc(C)nc(SCC(=O)Nc2ncc(COc3ccc(NC(=O)c4cnn(C)c4)c(I)c3)s2)n1`
a: 64.2

---

System: Sirt3
Construct: spans amino acids 101–399; GST (N); purchased Reaction Biology Corporation (Malvern, PA, USA), in-house enzyme of the contract laboratory; host or cells: E. coli
ASSAY OVERVIEW: Fluorescence-based Sirt3 subtype selectivity assay (Reaction Biology)
Format: biochemical
ASSAY CONTEXT: 50 µM inhibitor, duplicate, relative to no-inhibitor control
ENDPOINT NAME: Residual Enzyme Activity [%] ± SD Sirt3 (%)
Form entry: value (%) — number only.

>  <ITEM SMILES>
Cc1cc(C)nc(SCC(=O)Nc2ncc(COc3ccc(NC(=O)c4cnn(C)c4)c(Br)c3)s2)n1

>  <Residual Enzyme Activity [%] ± SD Sirt3 (%)>
62.3

$$$$
>  <ITEM SMILES>
Cc1cc(C)nc(SCC(=O)Nc2ncc(COc3ccccc3)s2)n1

>  <Residual Enzyme Activity [%] ± SD Sirt3 (%)>
78.8

$$$$

q: Given `Cc1cc(C)nc(SCC(=O)Nc2ncc(COc3ccc(NC(=O)c4cnn(C)c4)c(Cl)c3)s2)n1` , state its recorded Residual Enzyme Activity [%] ± SD Sirt3.
a: 56.1
